# OD450 at 0.2 µg/mL annotations
# TESTED_SYSTEM: T1, PD-1 protein (human, UniProt Q15116 25-167, limits assumed)
# T1 construct: also called human PD-1
# T1 sequence (Q15116 25-167 limits assumed): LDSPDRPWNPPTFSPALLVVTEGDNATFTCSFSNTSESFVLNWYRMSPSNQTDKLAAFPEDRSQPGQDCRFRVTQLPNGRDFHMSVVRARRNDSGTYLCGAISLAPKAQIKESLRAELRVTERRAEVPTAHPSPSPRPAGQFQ
# ASSAY_OVERVIEW: ELISA, PD-1 coated
# Protocol: 2 μg/ml of PD-1 protein is coated on 96-well plates overnight for ELISA binding assay. Recombinant VHH-FC proteins are added to the wells and allowed to stand for a period of time, then 1 μg/ml of HRP-conjugated anti-FC antibody is added as detection antibody and the assay reagents are added. The absorbance is read at 450 nm. Binding of nivolumab serves as a positive control and plates coated with BSA are used as the negative control group.
// units = OD450; emit number, no label

binder="504#SS30 (Fc fusion, not shown: a dimerising Fc or GST; small tags and cut ends, VHH-FC construct from HEK293 cells) VHH: EVQLVETGGGLVQAGGSLRLACEVSGRTFSSYAMGWFRQAPGREREFVASIRVSGGITDYADSVKGRFTISRDNAKDTVYLQMINLKPEDTAVYYCNADISRYRFSRGDYWGKGTLVTVSS" reported_metric="OD450 at 0.2 µg/mL" recorded_result=0.03
binder="504#SS29 (Fc fusion, not shown: a dimerising Fc or GST; small tags and cut ends, VHH-FC construct from HEK293 cells) VHH: QVQLVESGGGLVQAGGSLRLSCAASGRTFSGYTMGWFRRAPGKERELIANILWNSARRYYADSVKGRFTISRDNAMNTVDLQMNSLKPEDTAVYYCAVLVDSTYRFSNQGTQVTVSS" reported_metric="OD450 at 0.2 µg/mL" recorded_result=0.06

Next binder, please.
q: Sample 504#SS8 (Fc fusion, VHH-FC construct from HEK293 cells; not shown: The (G4S)3 linker leading to it is left out with it) VHH: EVQVVESGGGLVQAGGSLRLSCTASGRTFSNYAMGWFRQAPGKEREFVASVTWGGSGTFYADSVKGRFTISRDNIKNTVYLQMNSLKPEDTAVYYCAADNVGDSWYSDDYKYWGQGTQVTVSS — what was its OD450 at 0.2 µg/mL?
a: 0.03
